Subject of test: mGlyT-1b (Mus musculus, UniProt P28571)
Construct: host or cells: Flp-in-CHO cells
Measurement description: Glycine Uptake Inhibition Assay (mGlyT-1b)
Type: cell-based
Measurement parameters: [3H]-glycine uptake inhibition at GlyT-1, Flp-in-CHO cells transfected with mGlyT-1b cDNA
Measurement label: IC50 (µM)

Some entries whose results are on file:
CNS(=O)(=O)c1ccc(OC2CCCC2)c(C(=O)N2CCN(c3ccc(C#N)cc3)CC2)c1 [compound 491] :: 0.037
CNS(=O)(=O)c1ccc(OC(C)C)c(C(=O)N2CCN(c3ccc(C#N)cc3F)CC2)c1 [compound 506] :: 0.046
CS(=O)(=O)c1ccc(OCC(F)(F)C(F)F)c(C(=O)N2CCN(c3ccc(C(F)(F)F)cc3)CC2)c1 [compound 211] :: 0.043

A = CC(Oc1ccc(S(C)(=O)=O)cc1C(=O)N1CCN(c2cc(F)c(C#N)c(F)c2)CC1)C(F)(F)F (racemic) [compound 262]
B = CS(=O)(=O)c1ccc(OC2CCC2)c(C(=O)N2CCN(c3ccc(C#N)cc3F)CC2)c1 [compound 313]
Query: // which entry has the larger IC50 value, A or B ? Return value: the label identifying the chosen record.
Result: A

I = CS(=O)(=O)c1ccc(OCC2CCC2)c(C(=O)N2CCN(c3ccc(C(F)(F)F)cc3C#N)CC2)c1 [compound 144]
II = CS(=O)(=O)c1ccc(OCC2CCC2)c(C(=O)N2CCN(c3c(F)cc(C#N)cc3F)CC2)c1 [compound 147]
Query: Lower value of IC50 belongs to which: I or II ? Indicate your choice by writing its label.
Result: II
(II: 0.031 µM, I: 0.045 µM)

----------
Subject of test: mGlyT-1b (Mus musculus, UniProt P28571)
Measurement description: Glycine Uptake Inhibition Assay (mGlyT-1b)
Measurement parameters: [3H]-glycine uptake inhibition at GlyT-1, Flp-in-CHO cells transfected with mGlyT-1b cDNA
pIC50: −log10 of the molar value.
Measurement label: pIC50

// worked examples, pIC50 included
CS(=O)(=O)c1ccc(OC2CCCC2)c(C(=O)N2CCN(c3ccc(C#N)cn3)CC2)c1 :: 7.35
CC(C)(C)Oc1ccc(S(C)(=O)=O)cc1C(=O)N1CCN(c2ccc(C#N)c(F)c2F)CC1 :: 7.39
CCCCOc1ccc([N+](=O)[O-])cc1C(=O)N1CCN(c2ccc(C(F)(F)F)cc2)CC1 :: 7.49
CS(=O)(=O)c1ccc(OCC(F)(F)C(F)(F)F)c(C(=O)N2CCN(c3ccc(C#N)c(F)c3)CC2)c1 :: 7.44
CC(Oc1ccc(S(C)(=O)=O)cc1C(=O)N1CCN(c2cccc(C(F)(F)F)n2)CC1)C(F)(F)F (racemic) :: 7.40
CC(C)(C)Oc1ccc(S(C)(=O)=O)cc1C(=O)N1CCN(c2c(F)cc(S(C)(=O)=O)cc2F)CC1 :: 7.21

P = CS(=O)(=O)c1ccc(OCC2CC2)c(C(=O)N2CCN(c3ccc(Cl)cc3C#N)CC2)c1
Q = O=C(c1cc([N+](=O)[O-])ccc1OC1CCC1)N1CCN(c2ccc(C(F)(F)F)cc2)CC1
Query: Returns the identifier with the smallest measured pIC50 among P and Q . Use the label to indicate which entry you chose.
Result: P
(P: 7.33, Q: 7.80)

----------
Subject of test: mGlyT-1b (Mus musculus, UniProt P28571)
Sequence (P28571 1-651 isoform P28571-2): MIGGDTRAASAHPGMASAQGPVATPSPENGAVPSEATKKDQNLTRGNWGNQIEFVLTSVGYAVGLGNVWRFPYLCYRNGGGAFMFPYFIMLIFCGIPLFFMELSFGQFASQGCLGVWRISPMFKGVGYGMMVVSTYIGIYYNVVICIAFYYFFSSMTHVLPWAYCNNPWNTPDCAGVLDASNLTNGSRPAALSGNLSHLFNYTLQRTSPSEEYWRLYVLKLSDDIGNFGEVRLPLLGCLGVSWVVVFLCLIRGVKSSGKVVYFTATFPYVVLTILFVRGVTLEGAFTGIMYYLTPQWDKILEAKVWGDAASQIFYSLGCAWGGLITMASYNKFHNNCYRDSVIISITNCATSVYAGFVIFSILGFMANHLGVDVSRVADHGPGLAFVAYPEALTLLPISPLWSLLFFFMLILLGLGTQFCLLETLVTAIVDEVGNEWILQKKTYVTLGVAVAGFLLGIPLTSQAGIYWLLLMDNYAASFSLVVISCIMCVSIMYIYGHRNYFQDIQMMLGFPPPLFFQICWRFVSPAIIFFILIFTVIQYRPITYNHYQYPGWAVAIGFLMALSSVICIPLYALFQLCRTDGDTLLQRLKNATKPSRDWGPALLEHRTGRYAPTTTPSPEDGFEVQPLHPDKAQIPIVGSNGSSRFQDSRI
Measurement description: Glycine Uptake Inhibition Assay (mGlyT-1b)
Measurement parameters: [3H]-glycine uptake inhibition at GlyT-1, Flp-in-CHO cells transfected with mGlyT-1b cDNA
Measurement label: IC50 (nM)

Worked cases, answers included:
CS(=O)(=O)c1ccc(OCC(F)(F)C(F)(F)F)c(C(=O)N2CCN(c3ccc(C(F)(F)F)cc3)CC2)c1 :: 30
N#Cc1ccc(N2CCN(C(=O)c3cc(S(=O)(=O)C4CC4)ccc3OC3CCCC3)CC2)c(F)c1 :: 35
CS(=O)(=O)c1ccc(OCC2CCC2)c(C(=O)N2CCN(c3ccc(C#N)cc3F)CC2)c1 :: 17
CC(Oc1ccc(S(C)(=O)=O)cc1C(=O)N1CCN(c2ccc(Cl)cc2C#N)CC1)C(F)(F)F (racemic) :: 32
CC(C)(Oc1ccc(S(C)(=O)=O)cc1C(=O)N1CCN(c2ccc(C(F)(F)F)cn2)CC1)C(F)(F)F :: 39
CS(=O)(=O)c1ccc(OCC2CCC2)c(C(=O)N2CCN(c3ccc(C#N)c(F)c3)CC2)c1 :: 27
CC(Oc1ccc(S(C)(=O)=O)cc1C(=O)N1CCN(c2ccc(C#N)c(F)c2F)CC1)C(F)(F)F (racemic) :: 23

I = CNS(=O)(=O)c1ccc(OCC(C)(C)C)c(C(=O)N2CCN(c3ccc(C#N)cc3F)CC2)c1
II = CNS(=O)(=O)c1ccc(OC(C)C(F)(F)F)c(C(=O)N2CCN(c3cc(F)c(C#N)cc3F)CC2)c1 (racemic)
III = CC(C)COc1ccc(S(C)(=O)=O)cc1C(=O)N1CCN(c2cc(F)c(C#N)c(F)c2)CC1
Query: Output the entries ranked by IC50 from maximum down to minimum. Return value: ordered labels per request.
Result: II, I, III
(II: 42 nM, I: 24 nM, III: 12 nM)

----------
Subject of test: mGlyT-1b (Mus musculus, UniProt P28571)
Sequence (P28571 1-651 isoform P28571-2): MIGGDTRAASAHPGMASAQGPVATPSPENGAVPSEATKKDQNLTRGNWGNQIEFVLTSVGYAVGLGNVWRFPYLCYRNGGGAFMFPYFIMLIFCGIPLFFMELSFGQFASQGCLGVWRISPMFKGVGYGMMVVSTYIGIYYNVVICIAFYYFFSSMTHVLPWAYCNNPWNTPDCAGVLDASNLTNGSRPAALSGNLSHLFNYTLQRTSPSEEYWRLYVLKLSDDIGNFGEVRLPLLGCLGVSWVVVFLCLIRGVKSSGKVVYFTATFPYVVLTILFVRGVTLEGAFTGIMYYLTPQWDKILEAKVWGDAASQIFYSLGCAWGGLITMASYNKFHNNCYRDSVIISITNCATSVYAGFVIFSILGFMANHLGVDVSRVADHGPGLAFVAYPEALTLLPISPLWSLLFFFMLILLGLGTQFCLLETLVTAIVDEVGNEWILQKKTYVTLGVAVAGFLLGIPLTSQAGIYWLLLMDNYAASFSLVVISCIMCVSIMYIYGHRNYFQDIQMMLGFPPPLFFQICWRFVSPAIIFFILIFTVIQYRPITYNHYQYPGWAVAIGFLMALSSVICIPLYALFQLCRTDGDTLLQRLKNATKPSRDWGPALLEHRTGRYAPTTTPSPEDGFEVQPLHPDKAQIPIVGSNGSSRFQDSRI
Measurement description: Glycine Uptake Inhibition Assay (mGlyT-1b)
Measurement parameters: [3H]-glycine uptake inhibition at GlyT-1, Flp-in-CHO cells transfected with mGlyT-1b cDNA
pIC50: −log10 of the molar value.
Measurement label: pIC50

CC(C)(C)Oc1ccc(S(C)(=O)=O)cc1C(=O)N1CCN(c2cc(F)c(C#N)cc2F)CC1 :: 7.37
CS(=O)(=O)c1ccc(OC2CCCC2)c(C(=O)N2CCN(c3ccc(S(=O)(=O)C4CC4)cc3F)CC2)c1 :: 7.43
CC(C)Oc1ccc(S(C)(=O)=O)cc1C(=O)N1CCN(c2ccc(C(F)(F)F)cc2C#N)CC1 :: 8.10
CC(C)(C)Oc1ccc(S(C)(=O)=O)cc1C(=O)N1CCN(c2ccc(C(F)(F)F)cc2F)CC1 :: 7.52

P = CC(Oc1ccc(S(C)(=O)=O)cc1C(=O)N1CCN(c2ccc(C(F)(F)F)cc2)CC1)C(F)(F)F (single isomer, unassigned) [compound 468]
Q = CC(=O)c1ccc(N2CCN(C(=O)c3cc(S(C)(=O)=O)ccc3OC(C)C)CC2)cc1F
Query: Of the two listed items, which has the higher pIC50? First: P Second: Q Please indicate the selected item by its label.
Result: P
